Hello, the source for this data is ChEMBL document CHEMBL1201862, in case you need it.

# Tested on: PC-3
# test details: NCI tumour cell line growth inhibition, 48 h
The source made the active and inactive calls. No stated cut-off is given here; in the data, active = GI50 up to about 1.1 µM and inactive = higher.
endpoint: GI50

GI50 for Cn1c(-c2ccccc2)cc(-c2cccs2)c1-c1ccsc1 is > 100 µM (inactive)

Entry C/C=C(\C)[C@@H](O)C(=O)O[C@@H]1CC(C(C)(C)O)[C@](C)(CCC(=O)OC)[C@H]2[C@H](OC(=O)[C@H](O)[C@H](C)CC)C[C@]3(C)C(=CC[C@H]3[C@H]3CO[C@H](C=C(C)C)C3)[C@]12C (some centres undefined) ; GI50 = 16.7 µM (inactive)

The recorded GI50 for CCNC(=O)C1CCCN1C(=O)C(CCCN=C(N)N)NC(=O)C(CC(C)C)NC(=O)C(Cc1c[nH]c2ccccc12)NC(=O)C(Cc1ccc(O)cc1)NC(=O)C(CO)NC(=O)C(Cc1c[nH]c2ccccc12)NC(=O)C(Cc1c[nH]cn1)NC(=O)C1CCC(=O)N1 (centres undefined) is > 100 µM (inactive)

Sample COc1cc2c(cc1OC)C13CCN4CC5CCOC6CC(=O)N2C1C6C5CC43 (centres undefined) ; GI50 observed: > 100 µM (inactive)

Entry CSc1ccc(Nc2cc(=O)[nH]c(=O)[nH]2)cc1 — recorded GI50 = > 100 µM (inactive)
